- Test system: Staphylococcus aureus 446
- run-description: MIC, standard broth micro-dilution assay, SA 446
- Format: cell-based
- Set-up: unit not given here
endpoint-name: Minimal Inhibitory Concentration (MIC) SA 446
Simply state the number, no unit and no words.

Recorded result, CCCCCCCCOc1ccc(CN[C@H]2C(=O)N[C@@H](CC(N)=O)C(=O)N[C@H]3C(=O)N[C@H]4C(=O)N[C@H](C(=O)N[C@H](C(=O)O)c5cc(O)cc(O)c5-c5cc4ccc5O)[C@H](O[C@H]4C[C@](C)(N)[C@@H](O)[C@H](C)O4)c4ccc(c(Cl)c4)Oc4cc3cc(c4O[C@@H]3O[C@H](CO)[C@@H](O)[C@H](O)[C@H]3O[C@H]3C[C@](C)(N)[C@@H](O)[C@H](C)O3)Oc3ccc(cc3Cl)[C@H]2O)cc1 [Example 23] , Minimal Inhibitory Concentration (MIC) SA 446: 8

Recorded result, CCCCCCN[C@H]1C(=O)N[C@@H](CC(N)=O)C(=O)N[C@H]2C(=O)N[C@H]3C(=O)N[C@H](C(=O)N[C@H](C(=O)O)c4cc(O)cc(O)c4-c4cc3ccc4O)[C@H](O[C@H]3C[C@](C)(N)[C@@H](O)[C@H](C)O3)c3ccc(c(Cl)c3)Oc3cc2cc(c3O[C@@H]2O[C@H](CO)[C@@H](O)[C@H](O)[C@H]2O[C@H]2C[C@](C)(NCc3ccc(-c4ccccc4)cc3)[C@@H](O)[C@H](C)O2)Oc2ccc(cc2Cl)[C@H]1O [Example 11] , Minimal Inhibitory Concentration (MIC) SA 446: 1

Recorded result, C[C@@H]1O[C@@H](O[C@@H]2c3ccc(c(Cl)c3)Oc3cc4cc(c3O[C@@H]3O[C@H](CO)[C@@H](O)[C@H](O)[C@H]3O[C@H]3C[C@](C)(NCc5ccc(-c6ccc(Cl)cc6)cc5)[C@@H](O)[C@H](C)O3)Oc3ccc(cc3Cl)[C@@H](O)[C@@H](NCc3ccc(-c5cc(C(F)(F)F)cc(C(F)(F)F)c5)cc3)C(=O)N[C@@H](CC(N)=O)C(=O)N[C@H]4C(=O)N[C@H]3C(=O)N[C@@H]2C(=O)N[C@H](C(=O)O)c2cc(O)cc(O)c2-c2cc3ccc2O)C[C@](C)(N)[C@H]1O [Example 27] , Minimal Inhibitory Concentration (MIC) SA 446: 64

Recorded result, C[C@@H]1O[C@@H](O[C@H]2[C@H](Oc3c4cc5cc3Oc3ccc(cc3Cl)[C@@H](O[C@H]3C[C@](C)(N)[C@@H](O)[C@H](C)O3)[C@@H]3NC(=O)[C@H](NC(=O)[C@@H]5NC(=O)[C@H](CC(N)=O)NC(=O)[C@H](NCCCCCCCCc5ccccc5)[C@H](O)c5ccc(c(Cl)c5)O4)c4ccc(O)c(c4)-c4c(O)cc(O)cc4[C@@H](C(=O)O)NC3=O)O[C@H](CO)[C@@H](O)[C@@H]2O)C[C@](C)(N)[C@H]1O [Example 19, N^1 -(8-PHENYL-n-OCTYL)DESLEUCYL-A82846B] , Minimal Inhibitory Concentration (MIC) SA 446: 2

Recorded result, C[C@@H]1O[C@@H](O[C@@H]2c3ccc(c(Cl)c3)Oc3cc4cc(c3O[C@@H]3O[C@H](CO)[C@@H](O)[C@H](O)[C@H]3O[C@H]3C[C@](C)(NCc5ccc(-c6ccccc6)cc5)[C@@H](O)[C@H](C)O3)Oc3ccc(cc3Cl)[C@@H](O)[C@@H](NCCCCCCCCCCCCc3ccccc3)C(=O)N[C@@H](CC(N)=O)C(=O)N[C@H]4C(=O)N[C@H]3C(=O)N[C@@H]2C(=O)N[C@H](C(=O)O)c2cc(O)cc(O)c2-c2cc3ccc2O)C[C@](C)(N)[C@H]1O [Example 2] , Minimal Inhibitory Concentration (MIC) SA 446: 32

Recorded result, C[C@@H]1O[C@@H](O[C@@H]2c3ccc(c(Cl)c3)Oc3cc4cc(c3O[C@@H]3O[C@H](CO)[C@@H](O)[C@H](O)[C@H]3O[C@H]3C[C@](C)(NCc5ccc(-c6ccccc6)cc5)[C@@H](O)[C@H](C)O3)Oc3ccc(cc3Cl)[C@@H](O)[C@@H](NCc3ccc(-c5cc(C(F)(F)F)cc(C(F)(F)F)c5)cc3)C(=O)N[C@@H](CC(N)=O)C(=O)N[C@H]4C(=O)N[C@H]3C(=O)N[C@@H]2C(=O)N[C@H](C(=O)O)c2cc(O)cc(O)c2-c2cc3ccc2O)C[C@](C)(N)[C@H]1O [Example 26] , Minimal Inhibitory Concentration (MIC) SA 446: 8
